pIC50 values, listed per item
- tested system: recombinant human TTK protein (Homo sapiens (Human))
- Sequence (P33981 whole entry): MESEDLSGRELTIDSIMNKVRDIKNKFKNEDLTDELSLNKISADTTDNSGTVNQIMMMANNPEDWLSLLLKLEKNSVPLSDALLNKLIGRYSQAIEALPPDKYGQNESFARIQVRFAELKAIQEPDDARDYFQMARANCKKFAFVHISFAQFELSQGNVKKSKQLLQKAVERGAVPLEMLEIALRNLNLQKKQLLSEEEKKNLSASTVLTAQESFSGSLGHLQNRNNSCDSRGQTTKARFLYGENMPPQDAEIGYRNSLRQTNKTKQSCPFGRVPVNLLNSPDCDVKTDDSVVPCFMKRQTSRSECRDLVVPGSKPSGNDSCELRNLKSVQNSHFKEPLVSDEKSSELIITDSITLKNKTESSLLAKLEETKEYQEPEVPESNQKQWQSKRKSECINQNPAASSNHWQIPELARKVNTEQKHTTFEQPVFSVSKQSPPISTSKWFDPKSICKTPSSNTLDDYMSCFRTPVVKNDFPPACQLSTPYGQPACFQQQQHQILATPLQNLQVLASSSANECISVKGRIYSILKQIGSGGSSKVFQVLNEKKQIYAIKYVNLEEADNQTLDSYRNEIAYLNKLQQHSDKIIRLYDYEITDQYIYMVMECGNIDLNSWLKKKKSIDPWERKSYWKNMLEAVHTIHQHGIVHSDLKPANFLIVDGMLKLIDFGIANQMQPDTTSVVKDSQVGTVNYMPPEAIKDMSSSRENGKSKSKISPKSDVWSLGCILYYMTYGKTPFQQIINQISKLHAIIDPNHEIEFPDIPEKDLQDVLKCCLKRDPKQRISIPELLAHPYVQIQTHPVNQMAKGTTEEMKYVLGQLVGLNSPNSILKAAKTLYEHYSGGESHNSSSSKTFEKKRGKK
- test method notes: Evaluation of TTK activity inhibitory ability (scintillation counting);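 also: reaction stopped with 0.5% phosphoric acid, spotted on P30 filter, TTK activity counted by scintillation, uninhibited no-compound wells taken as 100% control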
- Assay type: biochemical
- recorded conditions: TTK inhibitory activity; read-out: IC50
pIC50: −log10 of the molar value.

Solved entries:
[
  {
    "molecule": "Cn1cc(-c2n[nH]c3nc(NC4CCC(N5CCOCC5)CC4)nc(NC4CCCCC4)c23)cn1 (stereo not drawn)",
    "assay value": "6.52 to 7.00"
  },
  {
    "molecule": "COc1cc(N2CCOCC2)ccc1Nc1nc(NC2CCCCC2)c2c(-c3cn(C)nn3)n[nH]c2n1",
    "assay value": "> 7.52"
  }
]

Moving on to the next molecule.
// query Find the recorded pIC50 belonging to COc1cc(N2CCOCC2)ccc1Nc1nc(NC2CCCCC2)c2c(-c3cnn(C(F)F)c3)n[nH]c2n1 and report it.
// result 7.00 to 7.52
